experimental_system: galectin-3 (Homo sapiens, UniProt P17931)
Sequence (P17931 whole entry): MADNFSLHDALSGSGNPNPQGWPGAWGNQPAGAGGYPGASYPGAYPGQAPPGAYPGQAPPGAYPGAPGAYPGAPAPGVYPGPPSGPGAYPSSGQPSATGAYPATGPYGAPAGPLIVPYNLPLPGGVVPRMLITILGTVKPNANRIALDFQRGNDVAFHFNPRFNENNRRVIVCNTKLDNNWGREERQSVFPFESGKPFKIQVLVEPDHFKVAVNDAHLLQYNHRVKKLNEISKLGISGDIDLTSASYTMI
assay_protocol: Fluorescence anisotropy assay, affinity for galectin-3
condition_parameters: compound as inhibitor of the interaction between galectin and a fluorescein tagged saccharide probe; read-out: Gal-3 Kd
Threshold 800 nM: Kd strictly smaller gives Yes, otherwise No.

Strictly below 800 nM: is that where Kd of COC1C(n2cc(-c3nc(Cl)cs3)nn2)[C@@H](O)C(CO)O[C@H]1c1cc(C#N)nn1-c1cc(Cl)ccc1C(F)(F)F (stereo partly drawn) sits?
Yes

Consider next the compound CCOC(=O)c1cc([C@@H]2OC(CO)[C@H](O)C(n3cc(-c4nc(Cl)cs4)nn3)C2OC)n(-c2cc(Cl)ccc2C(F)(F)F)n1 (stereo partly drawn) in the same way.
No

Check OCC1O[C@@H](c2ccnn2-c2cc(Cl)ccc2C(F)(F)F)C(O)C(n2cc(-c3nccs3)nn2)[C@H]1O (stereo partly drawn) too.
No

Can you handle COC1C(n2cc(-c3nc(Cl)cs3)nn2)[C@@H](O)C(CO)O[C@H]1c1cc(Br)nn1-c1cc(Cl)ccc1C(F)(F)F (stereo partly drawn) next?
Yes

More entries:
Strictly below 800 nM: is that where Kd of OCC1O[C@@H](c2ccnn2-c2cc(Br)ccc2C(F)(F)F)C(O)C(n2cc(-c3nc(Cl)cs3)nn2)[C@H]1O (stereo partly drawn) sits?
Yes

Now consider COC1C(n2cc(-c3nc(Cl)cs3)nn2)[C@@H](O)C(CO)O[C@H]1c1cc(C(C)C)nn1-c1cc(Cl)ccc1C(F)(F)F (stereo partly drawn) .
Yes

---

experimental_system: UniProtKB P09382
assay_protocol: Fluorescence anisotropy assay, affinity for galectin-1
condition_parameters: compound as inhibitor of the interaction between galectin and a fluorescein tagged saccharide probe; read-out: Gal-1 Kd
property: Kd (nM)
# value in nM; strip the unit string

Consider the following illustrative entries.
Which measured Kd value corresponds to C=C(C)c1cc([C@@H]2OC(CO)[C@H](O)C(n3cc(-c4nc(Cl)cs4)nn3)C2OC)n(-c2cc(Cl)ccc2C(F)(F)F)n1 (stereo partly drawn) [Example 27] ?
540

// query: COC1C(n2cc(-c3nccs3)nn2)[C@@H](O)C(CO)O[C@H]1c1cc(C)nn1-c1cc(Cl)ccc1C(F)(F)F (stereo partly drawn) [Example 14]
150

Same read-out for COC1C(n2cc(-c3nc(Cl)cs3)nn2)[C@@H](O)C(CO)O[C@H]1c1ccnn1-c1cc(Cl)ccc1C(F)(F)F (stereo partly drawn) [Example 1] ?
36

---
Which measured Kd value corresponds to COC1C(n2cc(-c3ncc(Cl)s3)nn2)[C@@H](O)C(CO)O[C@H]1c1ccnn1-c1cc(Cl)ccc1C(F)(F)F (stereo partly drawn) [Example 12] ?
24

Now consider CCOC(=O)c1cc([C@@H]2OC(CO)[C@H](O)C(n3cc(-c4nc(Cl)cs4)nn3)C2OC)n(-c2cc(Cl)ccc2C(F)(F)F)n1 (stereo partly drawn) [Example 17] and answer again.
240

Now the compound COC1C(n2cc(-c3nccs3)nn2)[C@@H](O)C(CO)O[C@H]1c1ccnn1-c1cc(Cl)ccc1C(F)(F)F (stereo partly drawn) [Example 2]
170

---

experimental_system: galectin-1 (Homo sapiens)
Sequence (P09382 whole entry): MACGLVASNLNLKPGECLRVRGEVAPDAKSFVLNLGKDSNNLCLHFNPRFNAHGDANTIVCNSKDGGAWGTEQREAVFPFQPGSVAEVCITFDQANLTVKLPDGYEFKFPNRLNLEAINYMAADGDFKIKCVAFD
assay_protocol: Fluorescence anisotropy assay, affinity for galectin-1
condition_parameters: compound as inhibitor of the interaction between galectin and a fluorescein tagged saccharide probe; read-out: Gal-1 Kd
property: pKd
For clarity, pKd is expressed as the negative log10 of concentration in mol/L.

Reported pKd for OCC1O[C@@H](c2ccnn2-c2cc(Cl)ccc2C(F)(F)F)C(O)C(n2cc(-c3nc(Cl)cs3)nn2)[C@H]1O (stereo partly shown) : what is it?
7.32

More entries:
Consider the molecule COC1C(n2cc(-c3nc(Cl)cs3)nn2)[C@@H](O)C(CO)O[C@H]1c1cc(Br)nn1-c1cc(Cl)ccc1C(F)(F)F (stereo partly shown) and give its measured pKd.
7.18

Same again, this time with COC1C(n2cc(-c3nc(Cl)cs3)nn2)[C@@H](O)C(CO)O[C@H]1c1ccnn1-c1cc(Cl)cnc1C(F)(F)F (stereo partly shown)
7.30

Try the molecule OCC1O[C@@H](c2ccnn2-c2cc(Br)ccc2C(F)(F)F)C(O)C(n2cc(-c3nc(Cl)cs3)nn2)[C@H]1O (stereo partly shown)
7.37

The reported measurements were obtained from patent US20240132531A1.
